System: PEPTIDYL-PROLYL CIS-TRANS ISOMERASE (CYCLOPHILIN- (TB427TMP.211.1350))
assay-comment: Multitargeted bead mixture competition
Assay type: binding
reported-conditions: free ligand 100 μM, T. brucei lysate
observed-property: percentage of competition from bead binding (%)
The answer is to be given in %; state only the numeric part.

Use the examples below as a reference point.
- molecule: "Cc1ccc2nc(N)[nH]c(=O)c2c1Sc1ccncc1"
  target-of-assay: "PEPTIDYL-PROLYL CIS-TRANS ISOMERASE (CYCLOPHILIN- (TB427TMP.211.1350))"
  measurement: 1
- molecule: "Nc1nc2cccc(-c3ccccc3)c2n1Cc1ccc(Cl)c(Cl)c1"
  target-of-assay: "PEPTIDYL-PROLYL CIS-TRANS ISOMERASE (CYCLOPHILIN- (TB427TMP.211.1350))"
  measurement: 38
- molecule: "Nc1nc(O)c2c(CCc3ccccc3)c[nH]c2n1"
  target-of-assay: "PEPTIDYL-PROLYL CIS-TRANS ISOMERASE (CYCLOPHILIN- (TB427TMP.211.1350))"
  measurement: -24

Read the next record carefully.
Item CN(Cc1cnc2nc(N)nc(N)c2n1)c1ccc(C(=O)N[C@@H](CCC(=O)O)C(=O)O)cc1 [MTX, methotrexate] has what recorded percentage of competition from bead binding?
50

====

target-of-assay: HeLa cell extract proteins (Homo sapiens, UniProt P33991)
Construct: endogenous in cells; host or cells: HeLa cell extract
Sequence (P33991 1-863): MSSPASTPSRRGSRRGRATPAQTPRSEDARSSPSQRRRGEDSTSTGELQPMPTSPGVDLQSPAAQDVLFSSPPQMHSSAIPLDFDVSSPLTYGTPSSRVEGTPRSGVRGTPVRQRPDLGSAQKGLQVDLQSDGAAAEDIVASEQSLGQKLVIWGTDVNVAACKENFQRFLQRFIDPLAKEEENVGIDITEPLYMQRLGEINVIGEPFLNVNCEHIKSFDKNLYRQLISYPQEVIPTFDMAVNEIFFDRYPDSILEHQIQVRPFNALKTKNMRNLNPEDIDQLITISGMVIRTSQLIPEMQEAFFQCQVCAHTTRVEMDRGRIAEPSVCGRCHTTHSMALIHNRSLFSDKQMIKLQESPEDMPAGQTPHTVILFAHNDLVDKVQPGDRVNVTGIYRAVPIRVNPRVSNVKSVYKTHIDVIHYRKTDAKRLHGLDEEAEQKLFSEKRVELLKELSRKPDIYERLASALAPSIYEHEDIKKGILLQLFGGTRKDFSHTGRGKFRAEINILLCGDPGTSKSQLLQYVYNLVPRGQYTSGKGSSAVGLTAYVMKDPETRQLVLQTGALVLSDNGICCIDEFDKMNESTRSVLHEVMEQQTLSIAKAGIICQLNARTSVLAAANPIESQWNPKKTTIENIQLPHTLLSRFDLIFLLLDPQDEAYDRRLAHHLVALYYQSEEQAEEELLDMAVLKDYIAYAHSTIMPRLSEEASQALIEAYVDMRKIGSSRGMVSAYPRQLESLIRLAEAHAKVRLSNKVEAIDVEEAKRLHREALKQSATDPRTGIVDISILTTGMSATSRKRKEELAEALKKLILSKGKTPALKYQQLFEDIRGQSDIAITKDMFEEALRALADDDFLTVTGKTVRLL
Type: binding
reported-conditions: protein MCM4; HeLa
The reader will find reported fold changes relative to vehicle control values listed item by item below.
Respond with the number and no other words.

- compound: "CCCCCCOc1cccc(Cc2cnc(N)nc2N)c1"
  fold changes relative to vehicle control: 1.59
- compound: "CCCCCCOc1ccc(Cc2cnc(N)nc2N)cc1"
  fold changes relative to vehicle control: 1.11
- compound: "Nc1nc2c(c(=O)[nH]1)N(C=O)C(CNc1ccc(C(=O)N[C@@H](CCC(=O)O)C(=O)O)cc1)CN2 (stereo partly drawn)"
  fold changes relative to vehicle control: 0.87
- compound: "NCCCNc1ccc(C(=O)NC(CCC(=O)O)C(=O)O)cc1 (stereo not drawn)"
  fold changes relative to vehicle control: 0.93
- compound: "NCCOCCOCC(=O)Nc1nc2ncc(CNc3ccc(C(=O)NC(CCC(=O)O)C(=O)O)cc3)nc2c(=O)[nH]1 (stereo not drawn)"
  fold changes relative to vehicle control: 1.08

Item Nc1nc2cccc(-c3ccccc3)c2n1Cc1ccc(Cl)c(Cl)c1 has what recorded fold changes relative to vehicle control?
0.9
